- Tested on: ATP;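 further: ATP exposure 15 min at 22 °C before imaging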
- TEST: switch fluorescence ratio, 500 uM ATP over buffer (Cy3 cluster intensity, sum of 5 cycles each) (fold (ratio)); higher = stronger signal-on switching upon ATP binding; sequences stand for … in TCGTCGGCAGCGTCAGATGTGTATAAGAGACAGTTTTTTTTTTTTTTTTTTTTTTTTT…TC
- APPLIED_CONDITIONS: aptamer strand: ATP DNA aptamer (quencher-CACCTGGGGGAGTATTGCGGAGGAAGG + anchor), 100 nM annealed; ATP concentration: 500 uM
QUANTITY_NAME: switch fluorescence ratio

sequence_string=GAGCTAAGCT result=0.981
sequence_string=TCAAGTAAAG result=1.14
sequence_string=AGGCGATATA result=1
sequence_string=CGCATACGGT result=4.12
sequence_string=GTAATGGGGA result=1.02

switch fluorescence ratio reported for this sequence `CGGGTGGTAT` : 0.991

switch fluorescence ratio reported for this sequence `TCTGTTGGGG` : 0.992

switch fluorescence ratio reported for this sequence `CGGGCTGAAT` : 0.987

switch fluorescence ratio reported for this sequence `ACAGACTATA` : 1.09

switch fluorescence ratio reported for this sequence `AACTGGAGGG` : 0.969

switch fluorescence ratio reported for this sequence `GTCACAACGG` : 0.999

switch fluorescence ratio reported for this sequence `AAAAAGTGGG` : 0.992

switch fluorescence ratio reported for this sequence `TGACTCGGGC` : 0.993

switch fluorescence ratio reported for this sequence `ATATTTTATG` : 1.03

switch fluorescence ratio reported for this sequence `AGAATTAAGG` : 1.01

switch fluorescence ratio reported for this sequence `CTAGGTACTT` : 1.03
